- target.system: Ros (h) (Homo sapiens, UniProt P08922)
- Sequence (P08922 28-2347): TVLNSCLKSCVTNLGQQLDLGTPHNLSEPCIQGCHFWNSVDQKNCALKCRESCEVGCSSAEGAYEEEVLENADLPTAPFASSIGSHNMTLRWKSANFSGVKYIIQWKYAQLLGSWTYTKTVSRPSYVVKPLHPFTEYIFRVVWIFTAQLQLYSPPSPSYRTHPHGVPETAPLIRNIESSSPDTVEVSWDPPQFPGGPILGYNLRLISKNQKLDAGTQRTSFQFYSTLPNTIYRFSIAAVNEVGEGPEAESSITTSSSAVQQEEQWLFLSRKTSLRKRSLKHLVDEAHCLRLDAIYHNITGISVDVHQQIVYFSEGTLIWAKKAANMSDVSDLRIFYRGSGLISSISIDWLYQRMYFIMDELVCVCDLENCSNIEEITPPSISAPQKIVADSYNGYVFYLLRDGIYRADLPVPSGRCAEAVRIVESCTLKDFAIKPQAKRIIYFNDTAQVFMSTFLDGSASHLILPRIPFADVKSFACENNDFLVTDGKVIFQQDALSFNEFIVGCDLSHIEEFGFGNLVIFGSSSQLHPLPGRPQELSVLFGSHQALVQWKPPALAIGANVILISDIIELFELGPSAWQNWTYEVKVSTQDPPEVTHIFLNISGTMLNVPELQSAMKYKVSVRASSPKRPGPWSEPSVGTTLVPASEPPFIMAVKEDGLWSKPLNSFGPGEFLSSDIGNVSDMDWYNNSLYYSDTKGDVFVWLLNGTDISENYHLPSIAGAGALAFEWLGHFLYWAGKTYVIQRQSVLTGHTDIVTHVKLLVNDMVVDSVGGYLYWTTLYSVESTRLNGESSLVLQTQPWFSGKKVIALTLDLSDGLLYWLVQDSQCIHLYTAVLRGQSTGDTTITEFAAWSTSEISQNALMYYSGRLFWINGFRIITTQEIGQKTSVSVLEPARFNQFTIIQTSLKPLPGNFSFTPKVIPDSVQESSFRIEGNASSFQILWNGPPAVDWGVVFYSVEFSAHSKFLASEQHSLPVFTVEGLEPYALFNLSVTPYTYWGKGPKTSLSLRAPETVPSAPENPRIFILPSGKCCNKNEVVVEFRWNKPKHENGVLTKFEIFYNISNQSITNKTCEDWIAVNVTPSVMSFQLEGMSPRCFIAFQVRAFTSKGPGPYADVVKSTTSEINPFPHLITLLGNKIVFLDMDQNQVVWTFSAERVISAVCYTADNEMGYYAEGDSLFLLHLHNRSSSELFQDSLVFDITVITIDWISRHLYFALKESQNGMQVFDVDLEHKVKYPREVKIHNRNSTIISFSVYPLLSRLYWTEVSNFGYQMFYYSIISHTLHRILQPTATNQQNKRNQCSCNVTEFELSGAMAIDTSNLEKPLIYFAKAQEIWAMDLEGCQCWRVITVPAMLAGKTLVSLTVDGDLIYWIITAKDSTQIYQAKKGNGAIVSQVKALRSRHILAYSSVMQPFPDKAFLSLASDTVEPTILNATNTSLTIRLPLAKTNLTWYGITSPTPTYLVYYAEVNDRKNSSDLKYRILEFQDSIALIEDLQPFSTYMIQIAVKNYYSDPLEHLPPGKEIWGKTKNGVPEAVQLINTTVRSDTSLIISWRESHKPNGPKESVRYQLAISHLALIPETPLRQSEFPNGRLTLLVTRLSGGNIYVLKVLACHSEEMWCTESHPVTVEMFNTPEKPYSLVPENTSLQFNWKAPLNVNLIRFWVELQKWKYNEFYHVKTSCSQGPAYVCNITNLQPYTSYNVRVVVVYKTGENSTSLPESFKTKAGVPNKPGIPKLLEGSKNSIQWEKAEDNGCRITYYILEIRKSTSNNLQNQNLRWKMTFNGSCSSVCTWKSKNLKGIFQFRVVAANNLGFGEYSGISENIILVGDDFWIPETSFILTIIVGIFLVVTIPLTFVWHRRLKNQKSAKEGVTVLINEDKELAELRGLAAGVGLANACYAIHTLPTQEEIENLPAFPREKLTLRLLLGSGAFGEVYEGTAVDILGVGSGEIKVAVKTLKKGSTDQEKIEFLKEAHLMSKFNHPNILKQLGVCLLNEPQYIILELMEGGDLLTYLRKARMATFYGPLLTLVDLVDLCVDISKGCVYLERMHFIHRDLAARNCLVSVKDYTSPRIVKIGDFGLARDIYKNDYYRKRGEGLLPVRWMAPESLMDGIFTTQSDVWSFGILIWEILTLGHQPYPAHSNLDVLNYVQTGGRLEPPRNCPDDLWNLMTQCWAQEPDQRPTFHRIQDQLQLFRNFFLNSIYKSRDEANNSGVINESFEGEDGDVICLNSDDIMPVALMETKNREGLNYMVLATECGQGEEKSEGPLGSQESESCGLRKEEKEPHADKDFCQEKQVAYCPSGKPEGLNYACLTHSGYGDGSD
- run.description: Kinase Profiling Assay
- Type: biochemical
- experimental.context: 100 μM
# % activity per record follows

{"columns": ["sequence.content", "% activity [%]"],
 "data": [
  ["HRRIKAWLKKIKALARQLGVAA (Mammalian) [MMI-0500]", 150],
  ["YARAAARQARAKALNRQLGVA (Mammalian) [MMI-0200]", 86],
  ["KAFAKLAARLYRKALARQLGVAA [MMI-0400]", 99],
  ["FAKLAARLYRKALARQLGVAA [MMI-0300]", 95]
]}

====

- target.system: CDK7/cyclinH/MAT1 (h) (Homo sapiens)
- Construct: purchased Millipore
- run.description: Kinase Profiling Assay
- Type: biochemical
- experimental.context: 100 μM
measurement.type: % activity (%)

{"columns": ["sequence.content", "measurement.type", "readout.value"],
 "data": [
  ["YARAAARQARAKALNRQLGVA (Mammalian) [MMI-0200]", "% activity", 67],
  ["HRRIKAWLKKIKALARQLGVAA (Mammalian) [MMI-0500]", "% activity", 15],
  ["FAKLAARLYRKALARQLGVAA [MMI-0300]", "% activity", 65],
  ["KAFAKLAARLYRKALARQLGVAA [MMI-0400]", "% activity", 47]
]}

====

- target.system: mTOR/FKBP12 (h) (Homo sapiens, UniProt P42345)
- Construct: purchased Millipore
- Sequence (P42345 1362-2549 limits assumed): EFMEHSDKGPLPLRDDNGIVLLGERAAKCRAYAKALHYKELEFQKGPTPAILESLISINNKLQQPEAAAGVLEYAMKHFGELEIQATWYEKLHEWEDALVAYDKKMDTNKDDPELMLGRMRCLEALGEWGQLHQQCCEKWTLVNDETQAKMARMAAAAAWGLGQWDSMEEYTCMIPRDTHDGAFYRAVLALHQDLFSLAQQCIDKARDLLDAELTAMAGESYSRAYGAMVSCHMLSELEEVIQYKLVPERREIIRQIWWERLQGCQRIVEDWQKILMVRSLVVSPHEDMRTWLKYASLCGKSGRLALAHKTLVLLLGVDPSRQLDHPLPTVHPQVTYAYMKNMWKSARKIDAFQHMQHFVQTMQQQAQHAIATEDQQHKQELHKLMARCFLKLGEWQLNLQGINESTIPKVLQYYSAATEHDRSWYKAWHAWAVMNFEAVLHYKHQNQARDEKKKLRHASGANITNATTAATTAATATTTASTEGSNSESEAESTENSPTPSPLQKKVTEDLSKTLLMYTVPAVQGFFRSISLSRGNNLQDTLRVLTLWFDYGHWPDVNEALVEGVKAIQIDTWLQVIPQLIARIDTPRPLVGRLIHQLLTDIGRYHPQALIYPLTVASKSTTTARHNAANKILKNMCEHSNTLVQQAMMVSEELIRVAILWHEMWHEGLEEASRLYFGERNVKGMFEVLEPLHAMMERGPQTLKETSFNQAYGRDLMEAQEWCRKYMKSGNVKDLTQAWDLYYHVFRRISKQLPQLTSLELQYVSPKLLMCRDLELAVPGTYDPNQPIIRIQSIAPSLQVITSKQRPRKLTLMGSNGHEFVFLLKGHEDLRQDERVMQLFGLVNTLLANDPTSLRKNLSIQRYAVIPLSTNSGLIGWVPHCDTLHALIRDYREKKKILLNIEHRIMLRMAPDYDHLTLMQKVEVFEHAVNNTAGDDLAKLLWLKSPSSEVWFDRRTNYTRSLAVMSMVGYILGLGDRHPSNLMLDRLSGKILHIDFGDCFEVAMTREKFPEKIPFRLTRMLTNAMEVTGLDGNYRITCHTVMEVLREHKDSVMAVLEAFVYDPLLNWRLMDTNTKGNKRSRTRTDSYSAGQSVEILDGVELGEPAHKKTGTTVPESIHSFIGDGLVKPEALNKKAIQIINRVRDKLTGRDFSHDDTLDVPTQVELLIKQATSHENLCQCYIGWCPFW
- run.description: Kinase Profiling Assay
- Assay type: biochemical
- experimental.context: 100 μM
# % activity per record follows

{"columns": ["sequence.content", "target.system", "scale.unit", "% activity"],
 "data": [
  ["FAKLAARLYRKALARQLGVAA [MMI-0300]", "mTOR/FKBP12 (h) (Homo sapiens, UniProt P42345)", "%", 145],
  ["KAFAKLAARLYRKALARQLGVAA [MMI-0400]", "mTOR/FKBP12 (h) (Homo sapiens, UniProt P42345)", "%", 125],
  ["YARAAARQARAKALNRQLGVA (Mammalian) [MMI-0200]", "mTOR/FKBP12 (h) (Homo sapiens, UniProt P42345)", "%", 118],
  ["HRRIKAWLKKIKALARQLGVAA (Mammalian) [MMI-0500]", "mTOR/FKBP12 (h) (Homo sapiens, UniProt P42345)", "%", 140]
]}

====

- target.system: CaMKIδ (h) (Homo sapiens, UniProt Q8IU85)
- Construct: purchased Millipore
- Sequence (Q8IU85 whole entry): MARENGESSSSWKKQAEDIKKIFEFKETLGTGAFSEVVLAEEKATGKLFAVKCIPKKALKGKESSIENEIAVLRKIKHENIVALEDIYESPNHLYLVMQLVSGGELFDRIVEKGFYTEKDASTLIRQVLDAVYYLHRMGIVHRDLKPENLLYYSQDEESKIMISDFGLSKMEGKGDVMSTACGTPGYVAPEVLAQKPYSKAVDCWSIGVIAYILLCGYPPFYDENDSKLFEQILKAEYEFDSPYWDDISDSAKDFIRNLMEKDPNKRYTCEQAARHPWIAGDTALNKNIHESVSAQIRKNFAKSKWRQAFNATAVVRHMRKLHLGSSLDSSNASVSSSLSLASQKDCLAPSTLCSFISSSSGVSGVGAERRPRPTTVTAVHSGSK
- run.description: Kinase Profiling Assay
- Type: biochemical
- experimental.context: 100 μM
# % activity per record follows

{"columns": ["sequence.content", "% activity (%)"],
 "data": [
  ["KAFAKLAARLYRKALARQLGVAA [MMI-0400]", 17],
  ["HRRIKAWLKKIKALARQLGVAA (Mammalian) [MMI-0500]", 0],
  ["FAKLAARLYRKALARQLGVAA [MMI-0300]", 10],
  ["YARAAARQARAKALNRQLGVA (Mammalian) [MMI-0200]", 47]
]}

====

- target.system: Syk (h) (Homo sapiens, UniProt P43405)
- run.description: Kinase Profiling Assay
- Format: biochemical
- experimental.context: 100 μM

{"columns": ["sequence.content", "% activity / %"],
 "data": [
  ["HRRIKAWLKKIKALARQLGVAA (Mammalian) [MMI-0500]", 5],
  ["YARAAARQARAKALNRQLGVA (Mammalian) [MMI-0200]", 36],
  ["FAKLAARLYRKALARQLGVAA [MMI-0300]", 24],
  ["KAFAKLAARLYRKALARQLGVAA [MMI-0400]", 9]
]}

====

# % activity per record follows
- target.system: Hck (h) activated (Homo sapiens)
- Construct: purchased Millipore
- Sequence (P08631 whole entry): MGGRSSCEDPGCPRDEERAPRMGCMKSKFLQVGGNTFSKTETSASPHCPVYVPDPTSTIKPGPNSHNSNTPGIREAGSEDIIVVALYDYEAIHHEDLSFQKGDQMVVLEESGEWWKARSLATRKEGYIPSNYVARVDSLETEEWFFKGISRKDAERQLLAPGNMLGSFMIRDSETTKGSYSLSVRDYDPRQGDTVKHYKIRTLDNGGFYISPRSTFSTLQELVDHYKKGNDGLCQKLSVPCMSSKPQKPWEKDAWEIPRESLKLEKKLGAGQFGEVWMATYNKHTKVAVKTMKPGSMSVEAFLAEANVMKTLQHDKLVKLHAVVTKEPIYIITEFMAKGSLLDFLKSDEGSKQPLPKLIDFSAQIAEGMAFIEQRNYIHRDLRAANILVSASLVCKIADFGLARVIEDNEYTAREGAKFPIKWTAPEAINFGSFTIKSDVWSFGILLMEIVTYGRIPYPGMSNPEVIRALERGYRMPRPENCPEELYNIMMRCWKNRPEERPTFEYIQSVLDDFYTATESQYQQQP
- run.description: Kinase Profiling Assay
- Assay type: biochemical
- experimental.context: 100 μM

{"columns": ["sequence.content", "% activity, %"],
 "data": [
  ["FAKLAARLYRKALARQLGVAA [MMI-0300]", 82],
  ["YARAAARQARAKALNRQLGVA (Mammalian) [MMI-0200]", 100],
  ["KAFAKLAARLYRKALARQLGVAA [MMI-0400]", 81],
  ["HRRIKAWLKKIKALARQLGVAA (Mammalian) [MMI-0500]", 67]
]}

====

- target.system: Mer (h) (Homo sapiens, UniProt Q12866)
- Sequence (Q12866 21-999): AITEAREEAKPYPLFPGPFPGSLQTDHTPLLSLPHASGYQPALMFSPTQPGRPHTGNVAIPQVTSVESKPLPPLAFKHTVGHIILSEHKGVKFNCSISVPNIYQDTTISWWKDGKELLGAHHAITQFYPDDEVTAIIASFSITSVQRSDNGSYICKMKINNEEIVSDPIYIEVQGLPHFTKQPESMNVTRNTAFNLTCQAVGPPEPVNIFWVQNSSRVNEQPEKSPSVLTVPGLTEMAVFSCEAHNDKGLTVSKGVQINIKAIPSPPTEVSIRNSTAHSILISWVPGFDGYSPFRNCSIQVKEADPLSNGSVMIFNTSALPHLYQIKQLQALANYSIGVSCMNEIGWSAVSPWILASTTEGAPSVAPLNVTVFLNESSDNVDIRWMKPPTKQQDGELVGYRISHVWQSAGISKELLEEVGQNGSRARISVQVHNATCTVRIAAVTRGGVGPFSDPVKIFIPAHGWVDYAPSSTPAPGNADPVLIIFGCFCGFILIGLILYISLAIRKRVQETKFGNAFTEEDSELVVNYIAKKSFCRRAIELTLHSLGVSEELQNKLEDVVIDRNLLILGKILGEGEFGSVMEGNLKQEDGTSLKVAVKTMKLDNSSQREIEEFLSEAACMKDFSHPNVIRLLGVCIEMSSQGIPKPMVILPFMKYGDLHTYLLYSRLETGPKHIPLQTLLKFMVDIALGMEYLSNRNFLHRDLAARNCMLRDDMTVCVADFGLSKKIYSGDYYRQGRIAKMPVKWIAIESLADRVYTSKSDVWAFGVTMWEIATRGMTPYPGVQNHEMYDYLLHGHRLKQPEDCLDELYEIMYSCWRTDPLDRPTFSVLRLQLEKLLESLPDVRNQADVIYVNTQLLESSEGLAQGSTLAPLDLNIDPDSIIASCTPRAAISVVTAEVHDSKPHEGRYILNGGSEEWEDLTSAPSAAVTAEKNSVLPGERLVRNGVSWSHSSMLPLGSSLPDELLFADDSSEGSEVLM
- run.description: Kinase Profiling Assay
- Format: biochemical
- experimental.context: 100 μM
# % activity per record follows

{"columns": ["sequence.content", "target.system", "scale.unit", "% activity"],
 "data": [
  ["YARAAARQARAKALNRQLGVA (Mammalian) [MMI-0200]", "Mer (h) (Homo sapiens, UniProt Q12866)", "%", 90],
  ["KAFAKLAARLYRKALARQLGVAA [MMI-0400]", "Mer (h) (Homo sapiens, UniProt Q12866)", "%", 50],
  ["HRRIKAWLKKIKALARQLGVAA (Mammalian) [MMI-0500]", "Mer (h) (Homo sapiens, UniProt Q12866)", "%", 17],
  ["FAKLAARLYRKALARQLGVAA [MMI-0300]", "Mer (h) (Homo sapiens, UniProt Q12866)", "%", 52]
]}

====

- target.system: PKBβ (h) (Homo sapiens, UniProt P31751)
- Construct: purchased Millipore
- Sequence (P31751 whole entry): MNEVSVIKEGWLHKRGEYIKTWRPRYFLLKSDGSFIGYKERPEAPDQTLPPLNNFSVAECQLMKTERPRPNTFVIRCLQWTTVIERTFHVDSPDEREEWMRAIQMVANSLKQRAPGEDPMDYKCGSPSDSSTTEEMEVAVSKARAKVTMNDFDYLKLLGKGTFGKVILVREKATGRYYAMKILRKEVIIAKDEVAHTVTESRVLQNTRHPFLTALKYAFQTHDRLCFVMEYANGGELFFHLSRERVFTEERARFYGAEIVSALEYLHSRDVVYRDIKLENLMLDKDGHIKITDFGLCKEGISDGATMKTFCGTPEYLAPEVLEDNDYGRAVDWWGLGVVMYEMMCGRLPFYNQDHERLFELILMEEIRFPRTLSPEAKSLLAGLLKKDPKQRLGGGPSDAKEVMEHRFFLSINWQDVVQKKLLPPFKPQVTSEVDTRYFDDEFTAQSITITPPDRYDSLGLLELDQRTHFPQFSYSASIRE
- run.description: Kinase Profiling Assay
- Assay type: biochemical
- experimental.context: 100 μM
measurement.type: % activity (%)

{"columns": ["sequence.content", "target.system", "readout.value"],
 "data": [
  ["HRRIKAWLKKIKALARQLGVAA (Mammalian) [MMI-0500]", "PKBβ (h) (Homo sapiens, UniProt P31751)", 21],
  ["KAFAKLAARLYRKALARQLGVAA [MMI-0400]", "PKBβ (h) (Homo sapiens, UniProt P31751)", 98],
  ["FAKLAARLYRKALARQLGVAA [MMI-0300]", "PKBβ (h) (Homo sapiens, UniProt P31751)", 84],
  ["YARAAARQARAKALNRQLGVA (Mammalian) [MMI-0200]", "PKBβ (h) (Homo sapiens, UniProt P31751)", 250]
]}

====

- target.system: cKit(D816V) (h) (Homo sapiens, UniProt P10721, D816V)
- Construct: purchased Millipore
- run.description: Kinase Profiling Assay
- Assay type: biochemical
- experimental.context: 100 μM
# % activity per record follows
measurement.type: % activity (%)

{"columns": ["sequence.content", "readout.value"],
 "data": [
  ["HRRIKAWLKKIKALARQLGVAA (Mammalian) [MMI-0500]", 30],
  ["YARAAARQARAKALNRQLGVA (Mammalian) [MMI-0200]", 118],
  ["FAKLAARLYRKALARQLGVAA [MMI-0300]", 60],
  ["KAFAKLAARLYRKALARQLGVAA [MMI-0400]", 35]
]}
